Biological target: MMP-1 (Homo sapiens, UniProt P03956)
Sequence (P03956 100-469): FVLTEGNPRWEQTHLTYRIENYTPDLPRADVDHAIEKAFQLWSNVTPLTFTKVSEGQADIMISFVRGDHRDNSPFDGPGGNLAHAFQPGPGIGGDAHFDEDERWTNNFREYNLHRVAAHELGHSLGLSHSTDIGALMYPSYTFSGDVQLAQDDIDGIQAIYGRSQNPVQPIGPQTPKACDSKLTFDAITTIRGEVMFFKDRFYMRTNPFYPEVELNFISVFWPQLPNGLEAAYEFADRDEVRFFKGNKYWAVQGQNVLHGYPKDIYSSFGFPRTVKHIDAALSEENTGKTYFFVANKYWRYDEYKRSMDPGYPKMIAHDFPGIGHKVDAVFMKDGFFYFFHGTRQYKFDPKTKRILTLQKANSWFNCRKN
Test: MMP-1 inhibition (thiopeptide or fluorescent peptide substrate)
Format: biochemical
Details: read-out: MMP1 IC50
pIC50: −log10 of the molar value.
measurement.kind: pIC50

molecule	result.value
CC#CCOc1ccc(S(=O)(=O)C2(C(=O)NO)CCN(C(=O)c3ccccc3)CC2)cc1 [Example 65]	5.45
CC#CCOc1ccc(S(=O)(=O)C2(C(=O)NO)CCN(Cc3ccc(F)cc3)CC2)cc1 [Example 7]	5.60

###

Tested on: THP-1 cells
Assay: Human monocytic THP-1 cell differentiation assay for soluble proteins (THP-1 soluble protein assay)
Format: cell-based
Conditions: LPS-stimulated THP-1 cells, soluble protein not given
measurement.kind: inhibition at 3 µM (%)
Express it in %; write the number only.

compound	tested.on	unit.tag	inhibition at 3 µM
CC#CCOc1ccc(S(=O)(=O)C2(C(=O)NO)CCN(Cc3ccc(C#N)cc3)CC2)cc1	THP-1 cells	%	21
CC#CCOc1ccc([S+]([O-])CC2(C(=O)NO)CCN(C(=O)OC(C)(C)C)CC2)cc1 (stereo not shown)	THP-1 cells	%	0
C#CCOc1ccc(S(=O)(=O)C2(C(=O)NO)CCN(Cc3ccc(Cl)cc3)CC2)cc1	THP-1 cells	%	13

Turning to the following compound.
*Q* Would you kindly share the measured inhibition at 3 µM for "CC#CCOc1ccc(S(=O)(=O)C2(C(=O)NO)CCN(C(CC)CC)CC2)cc1" ?
*A* 13

###

Tested on: THP-1 cells
Experiment: Human monocytic THP-1 cell differentiation assay for soluble proteins (THP-1 soluble protein assay)
Format: cell-based
Conditions: LPS-stimulated THP-1 cells, soluble protein not given
Structures can show the parent of a compound that is named as a salt.
Listing: inhibition at 3 µM of selected compounds
Supply the numeric figure in %, leaving out any unit text.

compound	inhibition at 3 µM [%]
CC#CCOc1ccc(S(=O)(=O)CC2(C(=O)NO)CCN(C(=O)C(C)(CO)CO)CC2)cc1	66

*Q* Need inhibition at 3 µM, item "CC#CCOc1ccc(S(=O)(=O)C2(C(=O)NO)CCN(C(=O)c3cccs3)CC2)cc1"
*A* 14

*Q* Quick one: inhibition at 3 µM for CC#CCOc1ccc(S(=O)(=O)C2(C(=O)NO)CCNCC2)cc1 [Example 76, hydrochloride] ?
*A* 26

*Q* Returns the measured inhibition at 3 µM for the input compound. Input: "CC#CCOc1ccc(S(=O)(=O)C2(C(=O)NO)CCN(Cc3ccc(Cl)cc3)CC2)cc1"
*A* 34

*Q* I'd like to know its inhibition at 3 µM. The compound in question is CC#CCOc1ccc(S(=O)(=O)C2(C(=O)NO)CCCN(CC)C2)cc1 (centres unmarked)
*A* 41

*Q* Given CC#CCOc1ccc(S(=O)(=O)C2(C(=O)NO)CCN(Cc3ccc(C(=O)O)cc3)CC2)cc1 [Example 78, hydrochloride] , state its recorded inhibition at 3 µM.
*A* 64

*Q* Can you look up the measured inhibition at 3 µM of "CC#CCOc1ccc(S(=O)(=O)C2(C(=O)NO)CCN(C(=O)c3cccnc3)CC2)cc1" for me?
*A* 62

*Q* Query: inhibition at 3 µM; subject: "CC#CCOc1ccc(SCC2(C(=O)NO)CCOCC2)cc1"
*A* 0

###

# MMP-9 (Homo sapiens, UniProt P14780): IC50 values follow
# Sequence (P14780 94-707): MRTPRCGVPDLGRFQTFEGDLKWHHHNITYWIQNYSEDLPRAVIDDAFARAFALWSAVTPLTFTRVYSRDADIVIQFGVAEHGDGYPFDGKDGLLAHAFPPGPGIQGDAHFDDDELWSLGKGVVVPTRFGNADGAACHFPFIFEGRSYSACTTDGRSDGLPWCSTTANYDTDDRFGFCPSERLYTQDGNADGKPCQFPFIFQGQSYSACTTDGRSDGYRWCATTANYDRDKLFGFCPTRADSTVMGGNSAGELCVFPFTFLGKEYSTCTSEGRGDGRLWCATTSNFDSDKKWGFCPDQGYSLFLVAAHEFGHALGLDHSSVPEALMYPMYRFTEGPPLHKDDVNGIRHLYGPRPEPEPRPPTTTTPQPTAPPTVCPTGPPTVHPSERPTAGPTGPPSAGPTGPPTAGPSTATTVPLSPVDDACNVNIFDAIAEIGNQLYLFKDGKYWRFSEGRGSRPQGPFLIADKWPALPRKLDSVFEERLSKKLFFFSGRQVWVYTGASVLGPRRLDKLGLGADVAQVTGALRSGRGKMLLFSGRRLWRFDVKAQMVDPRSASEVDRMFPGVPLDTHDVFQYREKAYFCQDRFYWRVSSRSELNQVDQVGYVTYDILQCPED
Where a name gives a salt, the structure may show the parent alone.
measurement.kind: IC50 (µM)

Worked examples, 3 compounds total:
compound	unit.tag	result.value
CC#CCOc1ccc(SCC2(C(=O)NO)CCN(C(=O)OC(C)(C)C)CC2)cc1	µM	5.9
CC#CCOc1ccc(S(=O)(=O)CC2(C(=O)NO)CCN(C(=O)OC)CC2)cc1	µM	4.28
CC#CCOc1ccc(SCC2(C(=O)NO)CCOCC2)cc1	µM	2.3

I = CC#CCOc1ccc(S(=O)(=O)C2(C(=O)NO)CCNCC2)cc1 [Example 76, hydrochloride]
II = CC#CCOc1ccc(S(=O)(=O)C2(C(=O)NO)CCCN(Cc3ccc(Cl)cc3)C2)cc1 (centres unmarked)
III = CC#CCOc1ccc(S(=O)(=O)CC2(C(=O)NO)CCOCC2)cc1
IV = CC#CCOc1ccc(S(=O)(=O)C2(C(=O)NO)CCN(Cc3ccc(C(=O)O)cc3)CC2)cc1 [Example 78, hydrochloride]
V = CC#CCOc1ccc(S(=O)(=O)C2(C(=O)NO)CCN(Cc3ccc(C(N)=O)cc3)CC2)cc1 [Example 79, hydrochloride]
*Q* Hey, quick one: sort these by IC50, low to high? List the labels according to the requested ordering.
*A* V, IV, III, II, I
(V: 0.129 µM, IV: 0.364 µM, III: 1.28 µM, II: 2.74 µM, I: 7.89 µM)

###

Target: MMP-9 (Homo sapiens, UniProt P14780)
Where a name gives a salt, the structure may show the parent alone.
measurement.kind: IC50 (nM)

compound	tested.on	IC50 (nM)
CC#CCOc1ccc(S(=O)(=O)C2(C(=O)NO)CCN(C(=O)c3ccccc3)CC2)cc1	MMP-9 (Homo sapiens, UniProt P14780)	448

A = CC#CCOc1ccc(S(=O)(=O)C2(C(=O)NO)CCN(Cc3ccc(C(=O)OC)cc3)CC2)cc1 [Example 77, hydrochloride]
B = CC#CCOc1ccc(S(=O)(=O)C2(C(=O)NO)CCN(Cc3ccc(Cl)cc3)CC2)cc1
C = CC#CCOc1ccc(S(=O)(=O)C2(C(=O)NO)CCN(C(=O)C(C)(CO)CO)CC2)cc1
D = CC#CCOc1ccc(S(=O)(=O)C2(C(=O)NO)CCOCC2)cc1
*Q* Reorder the items by IC50, least to greatest. List the labels according to the requested ordering.
*A* A, B, D, C

A = CC#CCOc1ccc(S(=O)(=O)C2(C(=O)NO)CCN(Cc3cccnc3)CC2)cc1
B = CC#CCOc1ccc([S+]([O-])C2(C(=O)NO)CCNCC2)cc1 (centres unmarked) [Example 81, hydrochloride]
*Q* Which record would sort first by descending IC50, A or B ? Give the label under which the chosen entry appears.
*A* B

###

Target: UniProtKB P78536
Sequence (P78536 215-824): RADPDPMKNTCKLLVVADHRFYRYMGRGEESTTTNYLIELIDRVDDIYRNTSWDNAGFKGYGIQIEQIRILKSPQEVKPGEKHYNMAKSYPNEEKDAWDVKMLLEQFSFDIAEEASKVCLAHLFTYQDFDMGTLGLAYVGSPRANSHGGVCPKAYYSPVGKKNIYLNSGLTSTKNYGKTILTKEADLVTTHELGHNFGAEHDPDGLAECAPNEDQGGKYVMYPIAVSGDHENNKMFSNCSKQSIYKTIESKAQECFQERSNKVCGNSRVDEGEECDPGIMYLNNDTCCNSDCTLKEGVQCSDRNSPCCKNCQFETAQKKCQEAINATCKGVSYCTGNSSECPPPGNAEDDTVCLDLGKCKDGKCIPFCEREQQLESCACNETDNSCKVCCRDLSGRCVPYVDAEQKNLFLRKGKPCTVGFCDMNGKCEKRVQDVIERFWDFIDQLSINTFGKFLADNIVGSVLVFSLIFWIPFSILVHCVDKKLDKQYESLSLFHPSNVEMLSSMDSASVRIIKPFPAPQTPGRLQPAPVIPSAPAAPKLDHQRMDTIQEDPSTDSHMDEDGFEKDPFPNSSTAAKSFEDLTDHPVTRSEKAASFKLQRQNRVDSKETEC
Assay: Test procedure for measuring TACE inhibition (fluorescent peptidyl substrate)
Format: biochemical
measurement.kind: inhibition at 1 µM (%)

Solved cases below.
O=C(NO)C1(S(=O)(=O)c2ccc(OCC#CCN3CCCCC3)cc2)CCN(Cc2ccc(Br)cc2)CC1 41.8
CC#CCOc1ccc(SC2(C(=O)NO)CCNCC2)cc1 38
CC#CCOc1ccc(S(=O)(=O)C2(C(=O)NO)CCN(C(C)C)CC2)cc1 48.4

I = CC#CCOc1ccc(SC2(C(=O)NO)CCN(C(=O)OC(C)(C)C)CC2)cc1
II = CC#CCOc1ccc(SC2(C(=O)NO)CCN(Cc3ccc(Br)cc3)CC2)cc1
*Q* Choose between I and II : whose measured inhibition at 1 µM value is numerically larger? Choose, then provide that item's label.
*A* I

###

Tested on: THP-1 cells
Experiment: Human monocytic THP-1 cell differentiation assay for soluble proteins (THP-1 soluble protein assay)
Type: cell-based
Conditions: LPS-stimulated THP-1 cells, soluble protein not given
Where a name gives a salt, the structure may show the parent alone.
Catalogue of inhibition at 3 µM readings, one per entry.
Numbers only; they are read as %.

See these solved cases before continuing.
molecule	unit.tag	result.value
CC#CCOc1ccc(S(=O)(=O)CC2(C(=O)NO)CCN(C(C)=O)CC2)cc1 [Example 36]	%	58
CC#CCOc1ccc([S+]([O-])C2(C(=O)NO)CCN(C(=O)OC(C)(C)C)CC2)cc1 (stereo not shown) [Example 80]	%	-7
CC#CCOc1ccc([S+]([O-])C2(C(=O)NO)CCN(Cc3ccc(Br)cc3)CC2)cc1 (stereo not shown) [Example 82, hydrochloride]	%	16
CC#CCOc1ccc(S(=O)(=O)C2(C(=O)NO)CCCN(Cc3ccc(Cl)cc3)C2)cc1 (stereo not shown) [Example 25]	%	3
CC#CCOc1ccc(S(=O)(=O)C2(C(=O)NO)CCN(Cc3ccc(Br)cc3)CC2)cc1 [Example 1]	%	46

*Q* Request: inhibition at 3 µM, test system THP-1 cells, entry CC#CCOc1ccc(S(=O)(=O)CC2(C(=O)NO)CCN(C(=O)NC(C)(C)C)CC2)cc1 [Example 38]
*A* 53

*Q* inhibition at 3 µM of CC#CCOc1ccc(S(=O)(=O)CC2(C(=O)NO)CCN(C(=N)N)CC2)cc1 [Example 44] on THP-1 cells?
*A* 49

*Q* Find the measured inhibition at 3 µM: item CC#CCOc1ccc(S(=O)(=O)C2(C(=O)NO)CCN(S(=O)(=O)c3ccc(OC)cc3)CC2)cc1 [Example 72] , target or system THP-1 cells.
*A* 56

*Q* Query for THP-1 cells: what inhibition at 3 µM does the record show for CC#CCOc1ccc(S(=O)(=O)C2(C(=O)NO)CCN(Cc3ccc(C(=O)OC)cc3)CC2)cc1 [Example 77, hydrochloride] ?
*A* 52

*Q* Record lookup: for THP-1 cells, what inhibition at 3 µM belongs to CC#CCOc1ccc(S(=O)(=O)C2(C(=O)NO)CCN(C(=O)c3ccccc3)CC2)cc1 [Example 65] ?
*A* 3

*Q* Which inhibition at 3 µM is reported with THP-1 cells for this entry: CC#CCOc1ccc(S(=O)(=O)C2(C(=O)NO)CCN(C(=O)OCC)CC2)cc1 [Example 68] ?
*A* 10

*Q* Recall the recorded inhibition at 3 µM for CC#CCOc1ccc(S(=O)(=O)C2(C(=O)NO)CCN(C(=O)OC(C)(C)C)CC2)cc1 [Example 75] with THP-1 cells and state it.
*A* -4

*Q* Fill in the recorded inhibition at 3 µM for this molecule, with THP-1 cells as test system: CC#CCOc1cccc(S(=O)(=O)C2(C(=O)NO)CCN(Cc3ccccc3)CC2)c1 [Example 21]
*A* 6

Ref: patent US6753337B2
